meta.source: PubChem BioAssay (Tox21)

experiment: qHTS assay to identify small molecule agonists of the endoplasmic reticulum stress response signaling pathway - cell viability counter screen (AID 1159517); conditions: ESRE-bla HeLa viability, CellTiter-Glo luminescence, 5 h; series mostly up to 61 µM;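 note: HeLa cells carrying an ER stress response element beta-lactamase reporter; nearly all actives have a fitted effect of over 50% in size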
Inconclusive results are not listed. The source made the active and inactive calls. Calls come from the whole dose curve.
Assay Readout: outcome

Solved entries:
CCC(C)OC(=O)c1ccc(O)cc1 (centres undefined) :: inactive
C=C(C)C(=O)OCCOC(=O)C(=C)C :: inactive
Nc1ncnc2nc[nH]c12 :: inactive
c1ccc(Nc2ccccc2)cc1 :: inactive
COC(=O)Nc1nc2ccc(S(=O)c3ccccc3)cc2[nH]1 (centres undefined) :: inactive

[ask] GET /values?readout=outcome&item= Nc1ncn([C@@H]2O[C@H](CO)[C@@H](O)[C@H]2O)c(=O)n1
[reply] inactive

[ask] GET /values?readout=outcome&item= O=CCc1ccccc1
[reply] inactive

[ask] GET /values?readout=outcome&item= Nc1ccccc1N
[reply] inactive

[ask] GET /values?readout=outcome&item= O=C(Nc1ccc(Cl)cc1)Nc1ccc(Cl)c(Cl)c1
[reply] inactive

[ask] GET /values?readout=outcome&item= COc1cccc2c1C(=O)c1c(O)c3c(c(O)c1C2=O)C[C@@](O)(C(=O)CO)C[C@@H]3O[C@H]1C[C@H](N)[C@H](O)[C@H](C)O1
[reply] inactive

[ask] GET /values?readout=outcome&item= CN(C)CCC=C1c2ccccc2CCc2ccccc21
[reply] inactive

###

experiment: qHTS assay to identify small molecule agonists of the AP-1 signaling pathway (AID 1159526); conditions: ME-180 (cervical carcinoma) AP-1-bla reporter, beta-lactamase FRET ratio, 5 h; series mostly up to 76.8 µM
Inconclusive results are not listed. Calls of active or inactive are those of the source. Calls follow the shape of the full dose curve.
Assay Readout: outcome

Solved entries:
CC(=O)C1(C)CC2=C(CCCC2(C)C)CC1C (centres undefined) :: inactive
CC(C)OC=O :: inactive
CC(C)CC(C)(O)C#CC(C)(O)CC(C)C (centres undefined) :: inactive
Brc1cc(Oc2cc(Br)c(Br)c(Br)c2Br)c(Br)c(Br)c1Br :: inactive
OCCO :: inactive
Cc1[nH]c(=O)c(C#N)cc1-c1ccncc1 :: inactive
O=C(OCc1ccccc1)c1ccccc1O :: inactive
O=C(/C=C/c1ccccc1)OCc1ccccc1 :: inactive
CCCCC(CC)COP(=O)(OCC(CC)CCCC)OCC(CC)CCCC (centres undefined) :: inactive
O=C(c1ccccc1)c1ccc(O)cc1O :: inactive

[ask] GET /values?readout=outcome&item= Nc1ncnc2nc[nH]c12
[reply] inactive

[ask] GET /values?readout=outcome&item= COC(=O)Nc1nc2ccc(S(=O)c3ccccc3)cc2[nH]1 (centres undefined)
[reply] inactive

[ask] GET /values?readout=outcome&item= c1ccc2c(c1)c1cccc3ccc4cccc2c4c31
[reply] inactive

[ask] GET /values?readout=outcome&item= c1cc(-c2ccncc2)ccn1
[reply] inactive

###

test: qHTS assay to identify small molecule antagonists of the androgen receptor (AR) signaling pathway using the MDA cell line in the presence of 0.5 nM R1881 - cell viability counter screen (AID 1259242); settings: MDA-kb2 viability, CellTiter-Fluor protease fluorescence, 16 h; series mostly up to 92.4 µM; note: nearly all actives have a fitted effect of over 45% in size
Inconclusive results are not listed. Activity calls are given as the source filed them. The call rests on the fitted dose curve; in most records, active means well fitted cell-killing curve with a large enough effect in the repeat runs; inconclusive means weak or mixed curves, or effect the other way; inactive means flat fitted curve, though single readings scatter.
Form entry, call: pick from yes for active, no for inactive

Below are worked cases with known answers.
CC(C)OC(=O)C(C)(C)Oc1ccc(C(=O)c2ccc(Cl)cc2)cc1 :: no
CCC(C)OC(=O)c1ccc(O)cc1 (stereo not drawn) :: no
CCCCOCCOCCO :: no
Cc1ccc(C(=O)c2cc(O)c(O)c([N+](=O)[O-])c2)cc1 :: yes

[ask] Kindly provide the recorded test outcome for the following compound: C=C(C)C1CC=C(C)CC1 (stereo not drawn)
[reply] no

[ask] Kindly provide the recorded test outcome for the following compound: CC(=O)O[C@]1(C(C)=O)CC[C@H]2[C@@H]3C=C(Cl)C4=CC(=O)[C@@H]5C[C@@H]5[C@]4(C)[C@H]3CC[C@@]21C
[reply] no

[ask] Kindly provide the recorded test outcome for the following compound: Brc1cc(Oc2cc(Br)c(Br)c(Br)c2Br)c(Br)c(Br)c1Br
[reply] no

[ask] Kindly provide the recorded test outcome for the following compound: NC=O
[reply] no

[ask] Kindly provide the recorded test outcome for the following compound: Cc1ccc(C)c(O)c1C
[reply] no

[ask] Kindly provide the recorded test outcome for the following compound: c1ccncc1
[reply] no

###

assay: qHTS assay to identify aromatase inhibitors - cell viability counter screen (AID 743084); conditions: MCF-7 aro ERE viability, CellTiter-Fluor, 24 h; series mostly up to 70.3 µM;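 note: cells stimulated with testosterone during compound exposure; nearly all actives have a fitted effect of over 55% in size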
Inconclusive results are not listed. Activity calls are given as the source filed them. Calls follow the shape of the dose curve; as a rule, active = well fitted cell-killing curve with a large enough effect in the repeat runs; inconclusive = weak or mixed curves, or effect the other way; inactive = no such curve, though single readings can be large or run the other way.
Form entry, call: pick from active, inactive

Below are worked cases with known answers.
CN(C)CCC=C1c2ccccc2CCc2ccccc21 :: inactive
Nc1ccccc1N :: inactive

[ask] Kindly provide the recorded test outcome for the following compound: COC(=O)CCC(=O)OC
[reply] inactive

[ask] Kindly provide the recorded test outcome for the following compound: C=CC(C)(CCC=C(C)C)OC(C)=O (stereo not given)
[reply] inactive

[ask] Kindly provide the recorded test outcome for the following compound: CC(CCC(=O)O)(c1ccc(O)cc1)c1ccc(O)cc1
[reply] inactive

[ask] Kindly provide the recorded test outcome for the following compound: CCCCOCCOCCO
[reply] inactive

[ask] Kindly provide the recorded test outcome for the following compound: CCCCC(CC)COCC1CO1 (stereo not given)
[reply] inactive

[ask] Kindly provide the recorded test outcome for the following compound: c1ccc2sc(SSN3CCOCC3)nc2c1
[reply] active

[ask] Kindly provide the recorded test outcome for the following compound: CC(=O)CC/C=C(\C)CCC=C(C)C
[reply] inactive

[ask] Kindly provide the recorded test outcome for the following compound: S=C(NC1CCCCC1)NC1CCCCC1
[reply] inactive

[ask] Kindly provide the recorded test outcome for the following compound: CCCCC/C=C/C=C/C=O
[reply] inactive

[ask] Kindly provide the recorded test outcome for the following compound: CN(C)C(=N)N=C(N)N
[reply] inactive

[ask] Kindly provide the recorded test outcome for the following compound: O=C(COc1ccc(Cl)cc1)N1CCN(Cc2ccc3c(c2)OCO3)CC1
[reply] inactive

[ask] Kindly provide the recorded test outcome for the following compound: CCC(C)CO (stereo not given)
[reply] inactive

[ask] Kindly provide the recorded test outcome for the following compound: C=C(C)C(=O)OCCOC(=O)C(=C)C
[reply] inactive

###

assay: qHTS assay to test for compound auto fluorescence at 460 nm (blue) in HEK293 cell free culture (AID 720681); conditions: cell-free medium, autofluorescence 405/460 nm (blue); series mostly up to 91.3 µM
Active and inactive are the calls of the source. Calls follow the shape of the dose curve; as a rule, active = well fitted curve in the direction sought with a large enough effect in the repeat runs; inconclusive = weak or mixed curves; inactive = flat fitted curve, though single readings scatter.
Assay Readout: outcome

COC(=O)C1=C(C)NC(C)=C(C(=O)OCCN(C)Cc2ccccc2)C1c1cccc([N+](=O)[O-])c1 (configuration not stated) :: inactive
CC(CCC(=O)O)(c1ccc(O)cc1)c1ccc(O)cc1 :: inactive
Cc1ccc(C)c(O)c1C :: inactive
O=C(c1ccc(OCCN2CCCCC2)cc1)c1c(-c2ccc(O)cc2)sc2cc(O)ccc12 :: inactive
c1ccc2cc(Nc3ccc(Nc4ccc5ccccc5c4)cc3)ccc2c1 :: inactive

[ask] GET /values?readout=outcome&item= OC1CCCCCCCCCCC1
[reply] inactive

[ask] GET /values?readout=outcome&item= O=C1OC2(c3cc(Br)c(O)c(Br)c3Oc3c2cc(Br)c(O)c3Br)c2c(Cl)c(Cl)c(Cl)c(Cl)c21
[reply] inactive

[ask] GET /values?readout=outcome&item= O=C(/C=C/C=C/c1ccc2c(c1)OCO2)N1CCCCC1
[reply] inactive

[ask] GET /values?readout=outcome&item= c1ccc(Nc2ccccc2)cc1
[reply] inactive

[ask] GET /values?readout=outcome&item= Clc1nc(Cl)c(Cl)c(Cl)c1Cl
[reply] inactive

[ask] GET /values?readout=outcome&item= COC(C)COC(C)COC(C)CO (configuration not stated)
[reply] inactive

[ask] GET /values?readout=outcome&item= OCCO
[reply] inactive

###

molecular target: Estrogen receptor (Homo sapiens); assay: qHTS assay to identify small molecule agonists of the estrogen receptor alpha (ER-alpha) signaling pathway (AID 743075); settings: HEK293 ER-alpha-UAS-bla, beta-lactamase FRET ratio, 18 h; series mostly up to 70.1 µM;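 note: HEK293 GripTite cells with ER-alpha and UAS-driven beta-lactamase reporter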
Results filed as inconclusive are left out. Active and inactive are the calls of the source. Calls follow the shape of the full dose curve.
Assay Readout: outcome

Solved entries:
CCCc1c(OCCCCc2nn[nH]n2)ccc(C(C)=O)c1O :: inactive
COC(=O)Nc1nc2ccc(S(=O)c3ccccc3)cc2[nH]1 (stereo unspecified) :: inactive
CCCCNS(=O)(=O)c1ccccc1 :: inactive
Oc1ccc(O)cc1 :: inactive
c1cc(N(CC2CO2)CC2CO2)ccc1OCC1CO1 (stereo unspecified) :: inactive

[ask] # returns recorded outcome (system: Estrogen receptor (Homo sapiens)) for O=S(=O)(O)c1ccc(O)cc1
[reply] inactive

[ask] # returns recorded outcome (system: Estrogen receptor (Homo sapiens)) for CC(C)OC(=O)C(C)(C)Oc1ccc(C(=O)c2ccc(Cl)cc2)cc1
[reply] inactive
